Entries and their measured apparent KD of MS2 coat protein follow.
tested on: MS2 coat protein; test: apparent KD of MS2 coat protein; designed switch direction (-1 OFF switch, 1 ON switch): 1; higher = weaker reporter binding; conditions: input ligand: FMN 200 uM
Lab book: enter the figure in µM, no units written.

Previously resolved entries follow.
chain_sequence="GGUCGGACUCACAUGAGGAUCACCCAUGUUGGCGAAAGCCGGCAGGAUAUCUGUCCGAAAAGGUCAGAGAAGGGCUAACCGACC [Fiskers NG3ss - 60] (Eterna round: R96, puzzle: Same State NG 3)" value_unit=µM measured_result=0.0657
chain_sequence="GCUCGAAUCACAGCCAACAUGAGGAUCACCCAUGUGUGUUGGUAGGAUAUCGUUUCUAAGGGAAACGAGAAGGGCCGAACGAGC [SameState NG3 #9] (Eterna round: R96, puzzle: Same State NG 3)" value_unit=µM measured_result=0.0315

Moving on to the next sequence.
response.value for UUAUCGCUUGGAGGAUAUCCAACUAUACUAAUUGGAGAAGGCCAAGCUACAGAGCUAAGCUUGGAAGUCACUUCGAAUCAACAC [pwkr ssNG1 F9.3] (Eterna round: R96, puzzle: Same State NG 1) (field: apparent KD of MS2 coat protein) = 0.0332

====

Entries and their measured apparent KD of MS2 coat protein follow.
system: MS2 coat protein; experiment: apparent KD of MS2 coat protein; designed switch direction (-1 OFF switch, 1 ON switch): -1; higher = weaker reporter binding; details: input ligand: FMN 200 uM
Phrase the answer as number then unit, nothing more needed.

chain_sequence="AUCGUACUAGGAUAUUCGGAAACGGACAUGAGGAUCACCCAUGUGAAUAUCCGCAGUCCAGAAGAAGGAGUGAACG [EX5 C.27] (Eterna round: R97, puzzle: Exclusion 5)" measured_result="33.5 nM"

response.value for GGAGAGAGAGGAUAUGGAGGAAAGAACAUGAGGAUCACCCAUGUAGAGCCUCAAGAUCGACCAGAAGGCUCAGUCC [AK-MS2ROC-r4-exclusion5-10] (Eterna round: R97, puzzle: Exclusion 5) (field: apparent KD of MS2 coat protein) = 150 nM

response.value for CAUACGGCAGGAUAUGCGUGGCCAUCUUAGCUCUACCUAAGACAUGAGGAUCACCCAUGUAGAAGGGUUACAUA [Eternabot (Original) Solution 41] (Eterna round: R97, puzzle: Exclusion 2) (field: apparent KD of MS2 coat protein) = 20.5 nM

response.value for UUAAUGUCAGGAUAUGCUUAAUAUAUUAUAUUAUAAUAUAUACAUGAGGAUCACCCAUGUAGAAGGGACAUUAU [LRO-Excl2-03-Fireball XL5] (Eterna round: R97, puzzle: Exclusion 2) (field: apparent KD of MS2 coat protein) = 26.8 nM

response.value for AAUAAUAGCGAGGAUAUCGUAUCGGAAACGAUACGAGAAGGCGUAACAUGAGGAUCACCCAUGUGUCCUCAAAA [Mat - Exclusion 6 - Eli Mod - D7] (Eterna round: R97, puzzle: Exclusion 6) (field: apparent KD of MS2 coat protein) = 2520 nM

response.value for AAGGGACAUGAGGAUCACCCAUGUCAGGAUAUUAGUGUGAGUCACCUUGUGAAUACACUAAGAAGGGAUAGAAA [Eternabot (Original) Solution 38] (Eterna round: R97, puzzle: Exclusion 1) (field: apparent KD of MS2 coat protein) = 69.8 nM

====

system: K4 kissing-loop RNA reporter; assay: apparent KD of K4 kissing-loop reporter; higher = weaker reporter binding; conditions: Eterna round: R107; input ligand: FMN 200 uM;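 note: bound reporter read as fluorescence of individual clusters on recovered sequencing chips by microscopy, with normalized cluster intensities fitted with a binding model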
Entries and their measured apparent KD of K4 kissing-loop reporter follow.
Lab book: enter the figure in nM, no units written.

chain_sequence="UUUAUUAAGACGGCCGCCACUGAAUCAUAGUGAUGUUAUGAUAUAAUUUUAGUGAUUUUGAUUAGCAGGACCGGGUCAAUUAUUA [#26 K4 Tryptophan B Exclusion]" value_unit=nM measured_result=165
chain_sequence="GGAUCCACCAGUGAUGUUGGAAAAUACUCCAAGGAUAUGACGAAAGUCAGAAGGUGGUAGACUGGACAAAGUCCAGUCGGAUCCA [FmnA 27 #SwitchBubble #K4Early]" value_unit=nM measured_result=531
chain_sequence="CACCCUAGUUCAGAUACCAGACUAGAGACAGUGAUGUUGUCACAUCCUAAAUUGGGUGUAGUCCCUUGGCAGCUGAGUAAUCUGC [Theo B/Ex/SS double]" value_unit=nM measured_result=600
chain_sequence="UUUAGGAGUGGUGUUGAUUAGGGAGCGGAAGGAGCGCCGAGGAAGGCAGGUAGGUCGCCGGAUUAUAGUGAUGUUAUGAAGAGGG [ExArg.M]" value_unit=nM measured_result=875
chain_sequence="CGCCGCAAGGCGGGCCGGCCCACUCCGGAAGGAGCGCCCGCAAGGGCAGGUAGGUCGCCGGAGUGAUGUUCCGGUGGCCGGCCCG [#2 Exclusion - Arginine A Attempt #3 (Inspired by Omei)]" value_unit=nM measured_result=433

response.value for CACGUUUACCAAGGAUAUGGUCUGCCGCGGAACCGUUCAAGUGAUGUUUGAUUCGAGUAUUAAUCUCCAGAAGGUGGUAGUACAG [theeternabot_exclusion_KL_FMN_B_6] (field: apparent KD of K4 kissing-loop reporter) = 247

response.value for GGCAUGGUGACGCGGCGGCCAUGCACUUGGGAGGAUAUGUUUCGUGACAGAAGGCCCAGUGAUGUUGGGUCUGUUCAAAAGGACU [Riteveat] (field: apparent KD of K4 kissing-loop reporter) = 491

response.value for CCAGAAUGAUGAGGAUGAUAAAUUACUGAAGGAGCGCAUAUAGUUGCAGGUAGGUCGCGGUGAAUAAGUAUAGUGAUGUUAUACC [SSArgA.Ab] (field: apparent KD of K4 kissing-loop reporter) = 595

response.value for `GGUAGCAUGGCGGCCGCCACUCUAUGCGAGUGAUGUUCGCAGCUCAAAGAGCACCCGGGAACAGAGAGGACCGGGCCAUGCUACC` (field: apparent KD of K4 kissing-loop reporter) = 294

response.value for UGUGAUGUGUAGUGUAAUGUUUUGCGGGAUACCAGAGUCUUUUUAUUCCCUUGGCAGCUUGAGUGAUGUUUGAUGCUGUUCUUGU [llmdmullin] (field: apparent KD of K4 kissing-loop reporter) = 519

response.value for `GCCGUAGAUUGAAGGAGCGCCAUCUUACCAAGAGUGAUGUUCUUUGGUACCAUGUACAGCUGGCAGGUAGGUCGCAAUCUACGGC` (field: apparent KD of K4 kissing-loop reporter) = 192

response.value for CGCAGUGAUGUUGCGAGUAGCUACAGGGAAGGAGCGUGCUAGAGCACAGGUAGGUCGCCCACGCAGUGAUGUUGUGUUAAAGGGU [Exclusion Arginine A GF 12] (field: apparent KD of K4 kissing-loop reporter) = 141

====

Entries and their measured apparent KD of MS2 coat protein follow.
system: MS2 coat protein; assay: apparent KD of MS2 coat protein; higher = weaker reporter binding; conditions: Eterna round: R107; input ligand: none
Lab book: enter the figure in nM, no units written.

Previously resolved entries follow.
chain_sequence="CCUUAAUAUAGAAGGAGCGCGCUAACAUGAGGAUCACCCAUGUAAAGGGUUUUGGGCUUAGCGCAGGUAGGUCGCUAUAAGAACC [Arg B Ex t2]" parameter="apparent KD of MS2 coat protein" value_unit=nM measured_result=106
chain_sequence="AACGUAUACAGAAGGAGCGUGAUUUAUAUUACUCAUUCAUAUACAUGAGGAUCACCCAUGUCACAGGUAGGUCGCUGUAUUCGUA [JR_ExcArginiB_Sub021]" parameter="apparent KD of MS2 coat protein" value_unit=nM measured_result=153
chain_sequence="GGGACACCGGGAAGGAGCGCAUCCAAACCACACAUGAGGAUCACCCAUGUAUAAAUAUGCAUGCAGGUAGGUCGCCCGAUGUCUC [Anrearradi]" parameter="apparent KD of MS2 coat protein" value_unit=nM measured_result=90.7
chain_sequence="UAACAUGAGGAUCACCCAUGUUUGAAGGAACGAGGACCGGUACGGCCGCCACUCGACGAGUGGAUGAGAAGUGGGAUUGUGUGCU [Same State Trp A GF8]" parameter="apparent KD of MS2 coat protein" value_unit=nM measured_result=13

response.value for CUCCCGUGGUCGGCCGCCACUGGAGGCCUCGCGCGACAUGAGGAUCACCCAUGUUGGCCCGGCCUCAGGACCGGGAUCGCGUGAG [#1 Same State - Tryptophan B Attempt #7 (HarryS)] (field: apparent KD of MS2 coat protein) = 13.7

response.value for GCCGCGGCCGCGAUACACAUGGGUGUGUAACGAGGACCGGUACGGCCGCCACUCGAGAUGGCACAUGAGGAUCACCCAUGUGUGC [Exclusion Tryp A GF16] (field: apparent KD of MS2 coat protein) = 24.1
